Target: T1, IFNAR-1 on human cells (human, UniProt P17181 28-557)
T1 sequence (looked up): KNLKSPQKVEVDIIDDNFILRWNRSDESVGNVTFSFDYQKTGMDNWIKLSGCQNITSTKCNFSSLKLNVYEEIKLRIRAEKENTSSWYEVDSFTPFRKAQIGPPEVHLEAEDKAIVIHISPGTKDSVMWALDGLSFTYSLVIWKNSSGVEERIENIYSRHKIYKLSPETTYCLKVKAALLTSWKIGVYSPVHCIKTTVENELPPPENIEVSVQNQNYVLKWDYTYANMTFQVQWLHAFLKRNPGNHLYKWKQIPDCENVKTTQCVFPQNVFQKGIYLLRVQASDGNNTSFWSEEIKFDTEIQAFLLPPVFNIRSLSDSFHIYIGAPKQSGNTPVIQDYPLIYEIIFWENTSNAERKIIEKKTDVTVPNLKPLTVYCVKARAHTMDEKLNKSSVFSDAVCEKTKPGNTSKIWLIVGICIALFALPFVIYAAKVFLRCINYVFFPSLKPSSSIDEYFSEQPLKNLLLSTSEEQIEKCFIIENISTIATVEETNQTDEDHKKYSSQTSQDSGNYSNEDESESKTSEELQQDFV
Assay: cell-based or functional assay
OBSERVED PROPERTY: ISRE-RG Reporter (U937) IC50, interferon α2b (nM)
# unit: nM | format: bare number

Recorded ISRE-RG Reporter (U937) IC50, interferon α2b for DI M3-B K1C (h IgG1) (antibody, V domains shown) VH: EVQLLESGGGLVQPGGSLRLSCAASGFTMSTSGMGIGWIRQTPGKGLEWVAHIWWDDDKYYNPSLKARFTISRDTSKNTLYLQMNSLRAEDTAVYYCARNYYPYDAWFDYWGQGTLVTVS VL: DIQMTQSPSSLSASVGDRVTITCSASTSINSNHLHWYQQKPGKAPKLLIYRTSILASGVPSRFSGSGSGTSFTLTISSLQPEDFATYYCQQGSNIPFTFGQGTKVEIKR , please?
4.6
